Cited source: patent US8710038B2

Catalogue of pIC50 readings, one per entry.
Biological target: c-Kit (Homo sapiens, UniProt P10721)
Sequence (P10721 26-976): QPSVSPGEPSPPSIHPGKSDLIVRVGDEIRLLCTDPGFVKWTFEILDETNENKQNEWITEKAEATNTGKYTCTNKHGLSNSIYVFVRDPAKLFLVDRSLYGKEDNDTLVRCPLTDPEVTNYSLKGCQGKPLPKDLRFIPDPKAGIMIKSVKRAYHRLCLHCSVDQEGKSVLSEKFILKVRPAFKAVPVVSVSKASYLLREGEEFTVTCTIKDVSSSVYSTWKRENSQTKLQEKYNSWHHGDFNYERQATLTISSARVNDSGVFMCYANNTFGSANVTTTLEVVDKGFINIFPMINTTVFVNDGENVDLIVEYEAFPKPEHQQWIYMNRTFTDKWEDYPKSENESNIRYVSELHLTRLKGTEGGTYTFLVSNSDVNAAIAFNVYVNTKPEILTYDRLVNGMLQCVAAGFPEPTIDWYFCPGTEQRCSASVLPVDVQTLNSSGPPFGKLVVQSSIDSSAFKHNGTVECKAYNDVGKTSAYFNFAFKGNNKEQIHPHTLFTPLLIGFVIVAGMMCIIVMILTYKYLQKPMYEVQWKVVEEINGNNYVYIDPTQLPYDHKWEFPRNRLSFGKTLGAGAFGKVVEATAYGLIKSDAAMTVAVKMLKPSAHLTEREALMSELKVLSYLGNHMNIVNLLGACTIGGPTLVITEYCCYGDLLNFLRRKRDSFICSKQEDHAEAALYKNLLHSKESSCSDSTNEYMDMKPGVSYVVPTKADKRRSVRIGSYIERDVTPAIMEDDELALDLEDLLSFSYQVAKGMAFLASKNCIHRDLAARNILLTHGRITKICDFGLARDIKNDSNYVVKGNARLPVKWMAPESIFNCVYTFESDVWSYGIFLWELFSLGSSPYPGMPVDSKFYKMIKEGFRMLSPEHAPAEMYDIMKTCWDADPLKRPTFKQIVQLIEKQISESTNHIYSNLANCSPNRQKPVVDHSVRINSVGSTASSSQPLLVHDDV
Assay: c-Kit biochemical assay (AlphaScreen)
pIC50: −log10 of the molar value.

// known answers, use as guide
* Oc1ccc(/C=C/c2cc(-c3ccncc3)n[nH]2)cc1 | 5.30 to 6.30
* CN1CCN(c2ccc(-c3cc(-c4ccc(NC(=O)C(=O)NCCc5ccccc5)cc4)[nH]n3)cc2)CC1 | 6.30 to 7.30
* CN1CCN(c2ccc(-c3cc(-c4ccc(NC(=O)Nc5ccc(Cl)c(C(F)(F)F)c5)cc4)[nH]n3)cc2)CC1 | > 7.30

# next compound below
Query: What does the data say about its pIC50? Entry: Nc1ccc(-c2cc(-c3nc4ccccc4[nH]3)n[nH]2)cc1
Reply: 5.30 to 6.30
